targetDesc: BRD4-BD1 (bromodomain-containing protein 4) (Homo sapiens, UniProt O60885)
experimentNotes: biochemical
experimentalReadout: pIC50
Entry type: numeric. Quantity: pIC50, the -log10 of concentration in molar units.

>>> experimentalresult("O=C1c2c(O)ccc(O)c2C(=O)c2c(NCCNCCO)ccc(NCCNCCO)c21 [Mitoxantrone]")
6.00
>>> experimentalresult("COc1cccc2c1C(=O)c1c(O)c3c(c(O)c1C2=O)C[C@@](O)(C(C)=O)C[C@@H]3O[C@H]1C[C@H](NCc2ccc(CN[C@@H]3C[C@@H](O[C@H]4C[C@](O)(C(C)=O)Cc5c(O)c6c(c(O)c54)C(=O)c4c(OC)cccc4C6=O)O[C@H](C)[C@@H]3O)cc2)[C@H](O)[C@H](C)O1 [WP631]")
5.69

Qu. Reported pIC50 for Nc1ccc(-c2nc3ccc(-c4nc5ccc(N)cc5[nH]4)cc3[nH]2)cc1 [Ro 90-7501] : what is it?
Ans. 4.77

Qu. Reported pIC50 for O=C(O)C1=CC(=C(c2ccc(O)c(C(=O)O)c2)c2ccc(O)c(C(=O)O)c2)C=CC1=O [aurintricarboxylic acid] : what is it?
Ans. 5.30

---

experimentNotes: in vitro
studyConditions: human, a431 cells
experimentalReadout: CC50 (µM)
I only need the number, in µM, no unit after it.

>>> experimentalresult("COc1cccc2c1C(=O)c1c(O)c3c(c(O)c1C2=O)C[C@@](O)(C(C)=O)C[C@@H]3O[C@H]1C[C@H](NCc2ccc(CN[C@@H]3C[C@@H](O[C@H]4C[C@](O)(C(C)=O)Cc5c(O)c6c(c(O)c54)C(=O)c4c(OC)cccc4C6=O)O[C@H](C)[C@@H]3O)cc2)[C@H](O)[C@H](C)O1 [WP631]")
0.17

Consider the record given below.
Qu. Reported CC50 for O=C1c2c(O)ccc(O)c2C(=O)c2c(NCCNCCO)ccc(NCCNCCO)c21 [Mitoxantrone] : what is it?
Ans. 1.65

---

experimentNotes: in vitro
studyConditions: human, a431 cells
# reported CC50; entries follow

Solved entries (count: 2):
>>> experimentalresult("O=C(O)C1=CC(=C(c2ccc(O)c(C(=O)O)c2)c2ccc(O)c(C(=O)O)c2)C=CC1=O")
"> 100 µM"
>>> experimentalresult("Nc1ccc(-c2nc3ccc(-c4nc5ccc(N)cc5[nH]4)cc3[nH]2)cc1")
"> 100 µM"

Qu. Reported CC50 for "Cc1ccc(C(=O)Nc2ccc(S(=O)(=O)O)c3cc(S(=O)(=O)O)cc(S(=O)(=O)O)c23)cc1NC(=O)c1cccc(NC(=O)Nc2cccc(C(=O)Nc3cc(C(=O)Nc4ccc(S(=O)(=O)O)c5cc(S(=O)(=O)O)cc(S(=O)(=O)O)c45)ccc3C)c2)c1" : what is it?
Ans. > 100 µM
